Experiment: Selectivity index, ratio of CC50 for African green monkey Vero cells to MIC for Mycobacterium tuberculosis BRF14
Type: toxicity
Each entry below lists one item and its recorded selectivity ratio value.

- Structure Notation: "O=C(NN1C(=O)CCC1=O)c1cc2c([nH]c3ccccc32)c(-c2ccc(F)cc2)n1"
  selectivity ratio: 4.32
- Structure Notation: "COC(=O)c1cc2c([nH]c3ccccc32)c(-c2ccc(N(C)C)cc2)n1"
  selectivity ratio: 1.74
- Structure Notation: "O=C(NN1C(=O)c2ccccc2C1=O)c1cc2c([nH]c3ccccc32)c(-c2ccc(F)cc2)n1"
  selectivity ratio: 12.2
- Structure Notation: "O=C(NN1C(=O)c2ccccc2C1=O)c1cc2c([nH]c3ccccc32)c(-c2cccc([N+](=O)[O-])c2)n1"
  selectivity ratio: 2.6
- Structure Notation: "O=C(NN1C(=O)c2ccccc2C1=O)c1cc2c([nH]c3ccccc32)c(-c2ccccc2)n1"
  selectivity ratio: 7.2
